Tested on: P. falciparum stage V female gametocytes
Test Protocol: P. falciparum female gametocyte activation assay (Pf FGAA), 24 h or 48 h preincubation, Pfs25 expression readout
Format: cell-based, Plasmodium falciparum NF54
Conditions Used: P. falciparum female gametocytes; mean; read-out: Gametocytes mean Pf FGAA IC50
pIC50: −log10 of the molar value.
Observation Type: pIC50

In [3]: df
Out[3]:
                                    compound  observation_type  numeric_value
 0  O=C(O)C(F)(F)F.O=c1[nH]ccc2nc(N[C@@H]3CCNC3)nc(Nc3cc(Cl)cc(Cl)c3)c12             pIC50           6.13
 1  FC(F)(F)c1ccc2[nH]c(-c3cccc(-c4ccc(CNCCN5CCNCC5)cc4)c3)nc2c1.O=C(O)C(F)(F)F             pIC50           5.75
 2  CCc1c(CCNCCCCCCNCCc2ccc([N+](=O)[O-])cc2)ccc(OC)c1OC.Cl             pIC50           5.84
 3  CC(C)c1ccc(CN2CCC(CNC(=O)c3cc(-c4cccc(Cl)c4)cs3)C2)cc1.O=C(O)C(F)(F)F (stereo not shown)             pIC50           6.22
 4  COc1ccc(OC)c(-c2cccc(-c3cccc(NC(=O)c4ccc([N+](=O)[O-])o4)c3)n2)c1             pIC50           6.02
 5             c1ccc2sc(Sc3ncnc4sccc34)nc2c1             pIC50           6.85
 6  COc1cccc(OC)c1CN1CCC(N(C)CCCCCCCCN2CCC(OC(=O)Nc3ccccc3-c3ccccc3)CC2)CC1             pIC50           5.65
 7  CCN(CC)/C(=N/C(=N)NCc1ccc(Cl)cc1Cl)NCCCCCCN/C(=N\C(=N)NCc1ccc(Cl)cc1Cl)N(CC)CC             pIC50           5.32
 8  Cc1cc(Nc2ncc(C#N)c(Nc3ccccc3C(N)=O)n2)ccc1N1CCN(C)CC1.Cl             pIC50           5.78
 9  Cc1ccnc(NC(c2cccc(Cl)c2Cl)c2ccc3cccnc3c2O)c1 (stereo not shown)             pIC50           5.72
10  Cc1ccc(Cl)c2sc(N3CCN(C(=O)c4ccc([N+](=O)[O-])o4)CC3)nc12             pIC50           5.84
11  CN(CCc1ccccc1)c1ncc(-c2cccc(CNCCC3CCCN3C)c2)cn1 (stereo not shown)             pIC50           5.87
12  CCN(CCNS(C)(=O)=O)c1ccc(N)c(C)c1.O.O=S(=O)(O)O             pIC50           5.94
13  Fc1ccc2[nH]c(-c3cccc(-c4ccc(CN5CCC(CCN6CCCCC6)CC5)cc4)c3)nc2c1.O=C(O)C(F)(F)F             pIC50           5.73
14  OCCN1CCN(c2ccc(Nc3ccnc4cc5ccccc5cc34)cc2)CC1             pIC50           5.48
15  CNCCNCc1ccc(-c2ccc(-c3nc4cc(C(F)(F)F)ccc4[nH]3)s2)cc1.O=C(O)C(F)(F)F             pIC50           5.89
